Kindly state logP for each of the entries shown.
METHOD_DESCRIPTION: Partition coefficient, log P of the compound
Assay type: physicochemical
CONDITION_LABEL: octanol/water
Output: the number by itself.

Prompt: // logP lookup, key: O=[N+]([O-])c1ccc(C2=[N+]([O-])C(c3ccccc3)N(C3CCCCC3)C2)cc1 (centres undefined)
Completion: 2.41

Prompt: // logP lookup, key: CN(C)c1ccc(C2N(Cc3ccccc3)CC(c3ccc([N+](=O)[O-])cc3)=[N+]2[O-])cc1 (centres undefined)
Completion: 2.02

Prompt: // logP lookup, key: COc1ccc(N2CC(c3ccc([N+](=O)[O-])cc3)=[N+]([O-])C2c2ccc(N(C)C)cc2)cc1 (centres undefined)
Completion: 2.32

Prompt: // logP lookup, key: O=[N+]([O-])c1ccc(C2=[N+]([O-])C(c3ccccc3)N(c3ccccc3)C2)cc1 (centres undefined)
Completion: 2.45
